# system_under_test: GlcNAc(b1-3)Gal(b1-4)GlcNAc(b1-3)Gal(b1-4)GlcNAc(b1-3)Gal(b1-4)GlcNAc(b1-2)Man(a1-3)[GlcNAc(b1-3)Gal(b1-4)GlcNAc(b1-3)Gal(b1-4)GlcNAc(b1-3)Gal(b1-4)GlcNAc(b1-2)Man(a1-6)]Man(b1-4)GlcNAc(b1-4)[Fuc(a1-6)]GlcNAc
# assay_explanation: glycan array binding signal (z-score within array); higher = stronger binding
# experimental_conditions: glycan notation: IUPAC condensed, linker removed
About 410 targets per protein were measured; listed, in parts, are those with the strongest signals and a random draw of the rest.
# glycan array binding signal (z-score) per record follows
Lab note: record just the number, no unit beside it.

>>> readout_number("EPL1 (Trichoderma atroviride), A0PCX2 (protein) MQLSNLFKLALFTAAVSADTVSYDTGYDDASRSLTVVSCSDGTNGLITRYHWQTQGQIPRFPYIGGAQAVAGWNSPNCGTCWKLTYSGKTIYVLAIDHTAAGFNIGLDAMNALTNGNAVALGRVSATASQVAVSNCGL")
0.866
>>> readout_number("ArathEULS3 TAP (Arabidopsis thaliana) (protein) IDENLYFQGGSMDEKTTGWRGGHVVEGLAGELEQLRARLEHHPQGQREPGGGGSLEITSLYKKAGFMEHHHQHHRHHQRDDGEDDRQSFGVPPPHVDAPPQPHGLYQSQPHFDPYAPTPQAPAPYRSETQFEPHAPPPYRSEPYFETPAPPPSFGHVSHVGHQSPNESYPPEHHRYGGYQQPSNSLLESHGDHSGVTHVAHHSSNQPQSSSGVYHKPDENRLPDNLAGLAGRATVKVYSKAEPNYNLTIRDGKVILAPADPSDEAQHWYKDEKYSTKVKDADGHPCFALVNKATGEAMKHSVGATHPVHLIRYVPDKLDESVLWTESKDFGDGYRTIRMVNNTRLNVDAYHGDSKSGGVRDGTTIVLWDWNKGDNQLWKIFPF")
2.42
>>> readout_number("Jacalin (Artocarpus integrifolia) (protein) MAYSSLLSLSVLALLFSISSADTRKWFLANGINQNPIGIIEAAVGVSEDLLNLNGMEAKNDEQSGISQTVIVGPWGAKVSTSSNGKAFDDGAFTGIREINLSYNKETAIGDFQVVYDLNGSPYVGQNHKSFITGFTPVKISLDFPSEYIMEVSGYTGNVSGYVVVRSLTFKTNKKTYGPYGVTSGTPFNLPIENGLIVGFKGSIGYWLDYFSMYLSL")
3.32

Provide only the value of recorded glycan array binding signal (z-score) for Mermaid1 (Stilbonema majum) (protein) MGSSHHHHHHSSGLVPRGSHMAASGWLRSPQGTVVKLYRRSLSWSKADEFCKDVDGRLVVDRTADMHLFLIKNVLKEKKSRVWVGLRRTAPHSRTWIWSDGTRQNEDDLDANLWLRDEPNDAAGEEECALFMYSPWEKAWGLNDYLCRGGCRSYQFICEKWIR 0.762

Give the measured glycan array binding signal (z-score) for SBD-G4S3-Fc (protein) MASIPSSASVQLDSYNYDGSTFSGKIYVKNIAYSKKVTVVYADGSDNWNNNGNIIAASFSGPISGSNYEYWTFSASVKGIKEFYIKYEVSGKTYYDNNNSANYQVSTGGGGSGGGGSGGGGSEFVPRDCGCKPCICTVPEVSSVFIFPPKPKDVLTITLTPKVTCVVVDISKDDPEVQFSWFVDDVEVHTAQTQPREEQFNSTFRSVSELPIMHQDWLNGKEFKCRVNSAAFPAPIEKTISKTKGRPKAPQVYTIPPPKEQMAKDKVSLTCMITDFFPEDITVEWQWNGQPAENYKNTQPIMDTDGSYFVYSKLNVQKSNWEAGNTFTCSVLHEGLHNHHTEKSLSHSPGAA 1.91

Provide only the value of recorded glycan array binding signal (z-score) for Si Bti9 1b-HA (Solanum lycopersicum) (protein) MFESRPRSVLSLGVFVILVYLSSVPLPVNSQCNRGCDLALASFYVWRGSNLTLISEMFSTSIADIVSYNNRDNIPNQDSVIAGTRINIPFRCDCLNDGEVLGHAFPYRVKSGDTYDLVARNYSDLTTAQWMMKFNSYPENNIPNTVNLSVVVNCSCGNSDVSKDFGLFVTYPVRAEDNLTSVASAANVSEDIIRRYNPAAVSILDIGQGIIYIPGRDRNGNFPPLPTSTDGLSGGAKAPLFFNPAFLYKVVELKLAGRSRTSGYPYDVPDYAGYPYDVPDYALEVLFQ 0.086

Determine its reported glycan array binding signal (z-score): DrGal3 (Danio rerio) (protein) MDLSDALDAPPQQNNQQAGGPVWPGQPANPVWPGQPANPTWPGQPNQPAWPGQPNQQWPGQPGQPTAPGWPGPAPQTGPYGAPGQAPQVLTVPLDFPLQNGAYNKMLITINGEVKPNAKQFTVNLRRGNDIAFHINPRFSEGGKPVIVRNSMIGNNWGREERELPSFPFVPGKPFEMKILITDTEYKVAVNKSHLLEFKHRVFELNQITGLSIYNDVTLSTVNVETLQ 6.12

Supply reported glycan array binding signal (z-score) belonging to this binder: HPA (Helix pomatia), Q575S3 (protein) MWAHLTGLLLICALSLSAAQRAQTGEIDCGSDSSWPKDPSDNPNRDNTREIVKHVTFSPQFCREPKVILSVTTLDAEHTKNLRYEARLKSVSPSGLSASCYSWHDGTIYRMKLSWLAVED -0.241

Input Sp8391B-bot-388-20-388 (Bacteroides ovatus) (protein) GCQNNDENEQHYDNKLFISASNFTKEILFKAGDTNVETGLSVAIAKPEEHDIKVTMSPAPELLSTYKLAYYDETAVLLSEEHYSMPETSTTIKSGSIVSPELPIEFINTGELDIKTTYVLPVTIKSVEGIGVLQSAKTYYYVFRGASLINVVCNISRNRAYPDFKNDSKFNNLTENTMEILFKANSFPNTLNTLMGIESNYLLRIGDATIPNNQLQVATSVNNCTSADLQLESGKWYHVAVAFNKGNVKVYINGVEKLSGSTGKSSVSLGAKHTNEEDGSRCFWVGYSYKDDRYFDGVVSEVRIWNRALTAEEIQATNHFYTIEPESEGLIAYWKFDEGSGTVAKDYSVSGYDLTIEKEPKWESVSLPQ , output reported glycan array binding signal (z-score). 2.65

Indicate the recorded glycan array binding signal (z-score) value for this binder: XTP3-B-MRH1 (Homo sapiens), Q96DZ1 (protein) LLEPLFKQSSCSYRIESYWTYEVCHGKHIRQYHEEKETGQKINIHEYYLGNMLAKNLLFEKEREAEEKEKSNEIPTKNIEGQMTPYYPVGMGNGTPCSLKQNRPRSSTVMYICHPESKHEILSVAEVTTCEYEVVILTPLLCSHPKYRFRA 4.18
